Tested on: Melatonin receptor (Gallus gallus, UniProt P49288+P51050+P49285)
Measurement protocol: Binding affinity towards melatonin receptor using 2-[125I]iodomelatonin as radioligand in chick brain membranes
Type: cell membranes, Membrane
Group membership follows Ki per the scheme category 1: < 100 nM; category 2: ≥ 100 nM and < 400 nM; category 3: ≥ 400 nM

| Smiles str | Tested on | Class |
| --- | --- | --- |
| O=C(NCCc1c[nH]c2ccccc12)C(F)(F)F | Melatonin receptor (Gallus gallus, UniProt P49288+P51050+P49285) | category 2 |
| O=C(NCCc1c(Br)[nH]c2cc(Br)ccc12)C(F)(F)F | Melatonin receptor (Gallus gallus, UniProt P49288+P51050+P49285) | category 2 |
| O=C(NCCc1c[nH]c2ccccc12)C1CC1 | Melatonin receptor (Gallus gallus, UniProt P49288+P51050+P49285) | category 3 |
| CC(=O)NCCc1c(Br)[nH]c2ccccc12 | Melatonin receptor (Gallus gallus, UniProt P49288+P51050+P49285) | category 2 |
| CCC(=O)NCCc1c(Br)[nH]c2cc(Br)ccc12 | Melatonin receptor (Gallus gallus, UniProt P49288+P51050+P49285) | category 1 |
| CC(=O)NCCc1c(Br)[nH]c2cc(Br)ccc12 | Melatonin receptor (Gallus gallus, UniProt P49288+P51050+P49285) | category 2 |
| CC(=O)NCCc1c[nH]c2ccccc12 | Melatonin receptor (Gallus gallus, UniProt P49288+P51050+P49285) | category 3 |
| O=C(CBr)NCCc1c[nH]c2ccccc12 | Melatonin receptor (Gallus gallus, UniProt P49288+P51050+P49285) | category 2 |
| CCCC(=O)NCCc1c(Br)[nH]c2cc(Br)ccc12 | Melatonin receptor (Gallus gallus, UniProt P49288+P51050+P49285) | category 1 |
| O=C(CBr)NCCc1c(Br)[nH]c2ccccc12 | Melatonin receptor (Gallus gallus, UniProt P49288+P51050+P49285) | category 1 |
| O=C(NCCc1c(Br)[nH]c2cc(Br)ccc12)C1CC1 | Melatonin receptor (Gallus gallus, UniProt P49288+P51050+P49285) | category 2 |
